Each record here notes measured cAMP EC50.
targetOfAssay: human glucagon receptor (human, UniProt P47871 26-477)
assayName: cell-based or functional assay
Ends that are not written are not given here.
reportedProperty: cAMP EC50

>>> valuemeasured("IP276 (Fc fusion) YSEGTFTSDYSKLLEEEAVRLFIEWLVKGPGGGGGGGGGGGGGGGGGATHTCPPC")
"1500 nM"
>>> valuemeasured("IP403 (Fc fusion) YSEGTHTSDLRILLEEEAVRLFIEKLLAGGGSGGGGSGGGGSGGGGSGGGGSGGGGSGGGGSGGGGSACPPC")
"960 nM"
>>> valuemeasured("IP235 (Fc fusion, cysteine pairing not given here; also: fused to IgG1-TM Fc) YSEGTFTSDYSKLLEEEAVRLFIEWLVKGPGGGGGSGGGGSATHTCPPCPAPEF")
"> 9900 nM"
